system: SF-295 CNS; assay: NCI tumour cell line growth inhibition, 48 h; in the data active = GI50 below about 0.43 µM; inactive = the rest
Outcome (select one): active, inactive

Lookup: # outcome recorded in this test, key = CCN(CC)CCCC(C)Nc1cc(-c2cccc(OC(F)(F)F)c2)nc2ccc(N3CCCC3)cc12 (centres undefined)
Found: active

Lookup: Let us now turn to "CN(C)CCCn1c(=O)c2ccccc2c2cnc3[nH]ccc3c21"
Found: inactive

Lookup: Let us now turn to COc1cc(OC)cc(C2C3=C(COC3=O)Nc3cc(OC)ccc32)c1 (centres undefined)
Found: active

Lookup: Let us now turn to "CCC[CH2][Sn]([CH2]CCC)([S]C#N)[S]C#N"
Found: inactive

Lookup: Let us now turn to "CS(=O)(=O)Nc1cccc(-c2ccc3ncnc(Nc4ccc(F)c(Cl)c4)c3c2)c1"
Found: inactive

Lookup: Let us now turn to "Cc1ccc(N=C[N-]c2ccc(C)cc2)cc1.Cc1ccc(N=C[N-]c2ccc(C)cc2)cc1.O=C([O-])C(F)(F)F.O=C([O-])C(F)(F)F.[OH3+].[OH3+].[Rh+2].[Rh+2]"
Found: inactive

Lookup: Let us now turn to "NC(=O)c1ccc(Oc2nccc(-c3c(-c4ccc(F)cc4)ncn3C3CCNCC3)n2)cc1"
Found: inactive

Lookup: Let us now turn to "c1ccc(OCCC[P+](c2ccccc2)(c2ccccc2)c2ccccc2)cc1"
Found: inactive

Lookup: Let us now turn to "C#Cc1cccc(Nc2nc(Cl)nc3cc(NC(=O)CCl)ccc23)c1"
Found: inactive
